Quick reference for TGI among some molecules
System: NCI/ADR-RES ovarian
measurement.description: NCI tumour cell line growth inhibition, 48 h

>>> assay_value("C[N+](C)(C)c1nc(N)nc2c1ncn2C1OC(CO)C(O)C1O (stereo unspecified)")
"> 100 µM"

Return reported TGI. Input molecule: COc1cc(/C=C2\N=C(c3ccccc3)N(c3ccc(C(=O)c4ccccc4)cc3N3C(=O)/C(=C/c4cc(OC)c(OC)c(OC)c4)N=C3c3ccccc3)C2=O)cc(OC)c1OC
34.1 µM

###

Reported GI50 values for a set of compounds
Tested on: MALME-3M melanoma
measurement.description: NCI tumour cell line growth inhibition, 48 h

>>> assay_value("CCn1cc(C2NC(=O)c3cc(F)ccc3N2)c2cccc(Cl)c21 (centres undefined)")
"2550 nM"
>>> assay_value("COc1cc([N+](=O)[O-])c2ncccc2c1O")
"1990 nM"
>>> assay_value("CN1C=CN(Cc2ccc(-c3ccccn3)nc2)[CH-]1.CN1C=CN(Cc2ccc(-c3ccccn3)nc2)[CH-]1.[Au+3]")
"2210 nM"

Check the records and state GI50 for C/C(=N\n1c(N)c(C#N)c(-c2ccc(Cl)cc2)c(C#N)c1=O)c1cccnc1
> 100000 nM

###

System: T-47D breast
measurement.description: NCI tumour cell line growth inhibition, 48 h
Measured TGI, listed per entry.

Name the value of TGI reported for Cn1cc(/C=C2\C(=O)Nc3cccnc32)c2ccccc21 when tested on T-47D breast.
> 25 µM

Report measured TGI on T-47D breast; entry: O=C1C(=O)C(CCCO)(CCCO)CCCCCCCCC1(CCCO)CCCO
> 100 µM

Report value only: TGI, T-47D breast, O=C1CCC(c2ccccc2)(c2ccccc2)CC1
> 100 µM

Report its TGI with T-47D breast as the test system: Cc1ccc(Nc2ccnc(Nc3cccc(C(N)=O)c3)n2)cc1O
> 21.2 µM

Param request: TGI | system T-47D breast | item Nc1ncc(Cc2nn3c(COc4ccc(Cl)cc4)nnc3s2)s1
> 100 µM

Give the observed TGI of CCSc1nn(-c2c3ccccc3nc3ccccc23)c(=S)s1 for T-47D breast.
> 100 µM

###

Tested on: NCI-H460 lung
measurement.description: NCI tumour cell line growth inhibition, 48 h
Each entry below carries its recorded GI50.

>>> assay_value("CCNC1=CC(=O)c2ncccc2C1=O")
"0.439 µM"
>>> assay_value("Cc1cc(I)cc(CN(C)CCCCN2CCCC2)c1O")
"17.3 µM"
>>> assay_value("CCCCCCCCCC[C@@H](O)[C@H]1CC[C@@H]([C@H]2CC[C@H]([C@H](O)CCCCCCCCCC[C@@H]3CC(CC(C)=O)C(=O)O3)O2)O1 (stereo not given in full)")
"0.0647 µM"
>>> assay_value("COCCOCCOCCOCCOc1ccc2c(c1)C(=O)c1nc3ncccc3c(=O)n1-2")
"0.4 µM"
>>> assay_value("Fc1ccc(-c2c(-c3ccncc3)n(CCN3CCOCC3)c3cccnc23)cc1")
"> 25 µM"
>>> assay_value("COCCn1cc(-c2csc(-c3c[nH]c4ccc(F)cc34)n2)c2cccnc21")
"3.38 µM"
>>> assay_value("CCc1ccc(/C=C2/SC(=S)NC2=O)cc1")
"20.7 µM"
>>> assay_value("Cc1ccc(Nc2ccnc(Nc3cccc(C(N)=O)c3)n2)cc1O")
"11.4 µM"

Quickly give me recorded GI50 for CC(=O)OCC1OC(O[C@@H]2C[C@H]3C(C)(C)[C@H](OC(C)=O)CC[C@]3(C)[C@H]3CC[C@@H]4[C@]5(CC[C@@]4(C)[C@@]32C)O[C@@H]([C@H](O)C(C)(C)O)C[C@@H]5C)C(O)C(O)C1O (stereo not given in full)
6.54 µM

Output measured GI50 for this item: Cn1cc(/C=C2\C(=O)Nc3cccnc32)c2ccccc21
16.4 µM
